All values here come from ChEMBL document CHEMBL1153800.

target: Carbonic anhydrase 2 (Homo sapiens) (UniProt P00918)
readout: pKi
One number for each entry, as −log10 of the molar value.

Field pKi (Carbonic anhydrase 2 (Homo sapiens) (UniProt P00918)), entry NS(=O)(=O)Oc1ccc(F)cc1 : 7.13
